Entry source: PubChem BioAssay (NCI)

I'd appreciate it if you could supply growth values for the items below.
Tested on: 786-0 renal
assay text: NCI-60 one-dose screen, 48 h (100 = growth as untreated, 0 = no growth, -100 = all killed)
measurement setup: 10 µM unless noted
The panel holds about 83,000 compounds, 20% with a hit somewhere; the sample as a whole holds those more often.
Give bare numbers, in %.

{"compound": "Cc1cccc(NC(c2cc3cccc4ccc5cccc2c5c43)c2nnnn2C(C)(C)C)c1C (centres undefined)", "growth / %": 97.6}
{"compound": "O=C1NC(=O)/C(=C/c2ccc(OCc3cc4ccccc4nc3Cl)cc2)S1", "growth / %": 93.7}
{"compound": "O=C(NNc1nc2cc(F)c(F)cc2n2cccc12)c1ccncn1", "growth / %": 11.9}
{"compound": "COc1cc2c3c(n(CCCN4CCC[C@H]4C(N)=O)c(=O)c2cc1OC)-c1cc2c(cc1C3=O)OCO2", "growth / %": -10.3}
{"compound": "CC(C)N=C(N/C(N)=N/c1nc2ccccc2s1)NC(C)C", "growth / %": 58.5}

For every record below, what is its growth?
1. O=C(COc1ccc(C2SCC(=O)N2c2ccc(F)cc2)cc1)c1ccccc1 (centres undefined)
2. CC(=O)Nc1ccc(NC(=O)Nc2cccc(-c3nc(-c4ccc(NC(=O)c5cccnc5)cc4Cl)no3)c2)cc1C(F)(F)F
3. Cc1ccc(NC(=O)N[C@@H](Cc2cc(F)cc(F)c2)C(=O)NC2C(=O)N3CCC[C@H]3C(=O)N3CCCC[C@H]3C(=O)N[C@@H](C)C(=O)N3C[C@H](C)C[C@H]3C(=O)O[C@H]2C)c(F)c1 (some centres undefined)

1: 102; 2: -35.6; 3: 40.7

Record growth for all entries; do not skip any.
1. Cn1cc(-c2nn3cc(-c4cccnc4)nc3s2)c2ccccc21
2. O=S(=O)(Nc1ccc(-c2nc(-c3cccc(O)c3)c(-c3ccnc(Br)c3)[nH]2)cc1)c1ccccc1
3. O=C(Nc1ccc(-c2nc(-c3cccc(O)c3)c(-c3ccnc(Br)c3)[nH]2)cc1)c1ccccc1
4. O=C1Nc2ccc(Cl)cc2/C1=C/c1ccc(OCc2ccc(F)cc2)cc1
5. Cc1cc(F)cc(NS(=O)(=O)c2ccc(-c3cnc(C4CC4)o3)cc2)c1
6. COc1cnc2c(c1)C(=O)c1c-2n(CCCNCC2CC2)c(=O)c2cc(F)ccc12

[59.7, 17.7, -10.2, 98.4, 47, -32.4]
